Heads up, these compounds all have GI50 values measured for HCT-15.

Recorded GI50, per entry:
- Compound: "Cc1nc2sc3ccccc3n2c(=O)c1/N=N/c1ccc(Br)cc1"
  Experimental Target: "HCT-15"
  GI50: "> 100 µM"
- Compound: "CC(=O)OCC1OC(n2c(=S)n(-c3ccccc3)c(=O)c3cc(Br)ccc32)C(OC(C)=O)C1OC(C)=O (stereo not drawn)"
  Experimental Target: "HCT-15"
  GI50: "> 100 µM"

Attention now turns to another entry.
Prompt: Tell me GI50 of NC1=NC(NCC2(CO)CCC2)=CC(OCC2(CO)CCC2)N1 (stereo not drawn) when tested on HCT-15.
Completion: > 100 µM

* * *

- System: TK-10
- Test Details: NCI tumour cell line growth inhibition, 48 h
Calls of active or inactive are those of the source. Rule as the data show it: active = GI50 up to about 1.1 µM and inactive = higher.
Recorded GI50 by entry

Recorded GI50, per entry:
- Compound: "CCOc1ccc(/N=N/C2C(=O)N(C(=O)CC(=O)Nc3ccc(C)cc3)N=C2C)cc1 (stereo not drawn)"
  Experimental Target: "TK-10"
  GI50: "24.8 µM (inactive)"
- Compound: "CC1(C)CC(=O)C2=C(C1)NC1=C(C2)C(=O)CC(C)(C)C1"
  Experimental Target: "TK-10"
  GI50: "> 100 µM (inactive)"
- Compound: "CCCC[C@H]1C(=O)O[C@H](C)[C@H](NC(=O)c2cccc(NC=O)c2OC)C(=O)O[C@@H](C)[C@@H]1OC(=O)C(C)CC.CCCC[C@H]1C(=O)O[C@H](C)[C@H](NC(=O)c2cccc(NC=O)c2OC)C(=O)O[C@@H](C)[C@@H]1OC(=O)CC(C)C (stereo partly drawn)"
  Experimental Target: "TK-10"
  GI50: "12.9 µM (inactive)"
- Compound: "COc1cc(C(=O)C/C(CCCC(=O)Nc2ccccc2[N+](=O)[O-])=N/NC(=O)c2cc3ccccc3cc2O)ccc1O"
  Experimental Target: "TK-10"
  GI50: "52.5 µM (inactive)"
- Compound: "CC(=O)Oc1cc2oc(=O)cc(C)c2cc1OC(C)=O"
  Experimental Target: "TK-10"
  GI50: "44.5 µM (inactive)"

Prompt: Please report GI50 for the following compound: `N#Cc1c(-c2ccccc2)c(/N=N/c2ccc(Cl)cc2)c(=O)n2c1[nH]c1ccccc12`
Completion: 23.3 µM (inactive)

Prompt: Please report GI50 for the following compound: `C/C=N\n1c(C)n[nH]c1=O`
Completion: > 100 µM (inactive)

* * *

- System: HOP-62
- Test Details: NCI tumour cell line growth inhibition, 48 h
Active and inactive are the calls of the source. Cut-off read from the data, not from the text of the source: active = GI50 up to about 1.1 µM and inactive = higher.
Readout: GI50

Recorded GI50, per entry:
- Compound: "COc1ccc(CCNC(=O)Cc2ccccc2CO)cc1OC"
  GI50: "> 100 µM (inactive)"
- Compound: "O=c1c2cccnc2oc2c(Cl)cc(-c3nnn[nH]3)cc12"
  GI50: "> 100 µM (inactive)"
- Compound: "O=C(OCc1ccccc1)N(CCCCN(CCCNCc1ccccc1)C(=O)OCc1ccccc1)CCCNCc1ccccc1"
  GI50: "1.6 µM (inactive)"
- Compound: "S=c1nc(Nc2ccc(Cl)cc2)c2c3c(sc2[nH]1)CCCC3"
  GI50: "> 100 µM (inactive)"
- Compound: "NC(CSC1(c2ccc(Cl)cc2)c2ccccc2-c2ccccc21)C(=O)O (stereo not drawn)"
  GI50: "18.7 µM (inactive)"

Prompt: Please report GI50 for the following compound: `O=[N+]([O-])c1cn[n+]([O-])c2ccccc12`
Completion: 12.9 µM (inactive)

Prompt: Please report GI50 for the following compound: C=C1C(=O)OC2/C=C(CO)/C=C\C3OC3(C)CC(OC(=O)/C(C)=C/COC(C)=O)C12 (stereo not drawn)
Completion: 20 µM (inactive)

Prompt: Please report GI50 for the following compound: COc1ccc(/C=C2\CCC(CN3CCOCC3)C2=O)cc1 (stereo not drawn)
Completion: 10.5 µM (inactive)

* * *

- System: PC-3
- Test Details: NCI tumour cell line growth inhibition, 48 h
Calls of active or inactive are those of the source. Rule as the data show it: active = GI50 up to about 1.1 µM and inactive = higher. Peptide text beside a SMILES is read from it.
Recorded GI50 by entry

Recorded GI50, per entry:
- Compound: "Cc1c(C(=O)O)n2c(S)nnc2c2ccccc12"
  Experimental Target: "PC-3"
  GI50: "> 100 µM (inactive)"
- Compound: "CCOC(=O)C(C(=O)OCC)C(NC(=O)Nc1cc(C(F)(F)F)ccc1OC)(C(F)(F)F)C(F)(F)F"
  Experimental Target: "PC-3"
  GI50: "39.6 µM (inactive)"

Attention now turns to another entry.
Prompt: Please report GI50 for the following compound: CC(C)CC(NC(=O)C(CC(C)C)NC(=O)C(Cc1c[nH]cn1)NC(=O)C(C)NC(=O)C(NC(=O)C(C)NC(=O)C(Cc1c[nH]c2ccccc12)NC(=O)C(CCC(=O)O)NC(=O)C(N)Cc1ccccc1)C(C)C)C(N)=O (stereo not drawn) (H-FEWAVAHLL-NH2; configuration not given here)
Completion: > 12.5 µM (inactive)

* * *

- Test system: SF-295
- Test Details: NCI tumour cell line growth inhibition, 48 h
Activity calls are given as the source filed them. Rule as the data show it: active = GI50 up to about 1.1 µM and inactive = higher.
Readout: GI50

Recorded GI50, per entry:
- Compound: "O=C(O)c1nc2ccccc2nc1Nc1ccc(F)cc1"
  GI50: "24 µM (inactive)"
- Compound: "N/C(=N\\O)N/N=C/c1ccc(C(F)(F)F)cc1"
  GI50: "26 µM (inactive)"
- Compound: "[O-][S+]1[C@H](c2ccccc2)c2c(-c3ccccc3)sc(-c3ccccc3)c2[C@@H]1c1ccccc1 (stereo partly drawn)"
  GI50: "> 100 µM (inactive)"
- Compound: "NC(CSC1(c2ccc(Cl)cc2)c2ccccc2-c2ccccc21)C(=O)O (stereo not drawn)"
  GI50: "15.3 µM (inactive)"
- Compound: "CCC(C)[C@@H](NCc1ccccc1)[C@H](OCc1ccccc1)[C@@H]1COC(C)(C)O1 (stereo partly drawn)"
  GI50: "21 µM (inactive)"

Prompt: Tell me GI50 of `CN(NC(=O)c1cccs1)C1=NCCN1` when tested on SF-295.
Completion: > 100 µM (inactive)

Prompt: Tell me GI50 of `C[N+](C)=c1nc(N2CCOCC2)ss1` when tested on SF-295.
Completion: 78.2 µM (inactive)

Prompt: Tell me GI50 of `CN(C(=O)Cc1ccc(Cl)c(Cl)c1)[C@H]1CCCC[C@@H]1[N+]1(C)CCCC1` when tested on SF-295.
Completion: > 100 µM (inactive)

* * *

- Tested on: SK-MEL-5
- Test Details: NCI tumour cell line growth inhibition, 48 h
Active and inactive are the calls of the source. No stated cut-off is given here; in the data, active = GI50 up to about 1.1 µM and inactive = higher.
Use one of these outcomes when replying: true (1) for active, false (0) for inactive

- Molecule: "O=C(NC1CCCCC1)c1c(O)[nH]c(=S)[nH]c1=O"
  Class Name: "false (0)"
- Molecule: "Cc1ccc(C)c(NC(=O)C(=O)C(C2C(C)CC(=O)C2CC(=O)O)[N+](=O)[O-])c1 (stereo not given)"
  Class Name: "false (0)"
- Molecule: "CC(=O)n1c(COS(C)(=O)=O)nc2ccccc21"
  Class Name: "false (0)"
- Molecule: "CC(=O)OC1C(O)C(C)OC(OC(=O)C2CCC3C(C2)OC2(CC(OC(=O)/C=C/c4ccccc4)C(C)CO2)C32CO2)C1OC1OC(C)C(O)C(O)C1O (stereo not given)"
  Class Name: "true (1)"

# next molecule below
Prompt: Assay result, entry `CN(C)/N=C1/CCC(C(F)(F)F)(C(F)(F)F)O1` — outcome?
Completion: false (0)

* * *

- Tested on: HL-60
- Test Details: NCI tumour cell line growth inhibition, 48 h
Active and inactive are the calls of the source. Cut-off read from the data, not from the text of the source: active = GI50 up to about 1.1 µM and inactive = higher.
Use one of these outcomes when replying: T (active), F (inactive)

Examples with answers:
- Compound: "O=C1Oc2ccccc2C(=O)/C1=C/N1C(=O)N/C(=C\\c2ccccc2O)C1=O"
  Class Name: "F"
- Compound: "CN1CC2=C(N=C(S)NC2c2ccc(Cl)cc2)/C(=C/c2ccc(Cl)cc2)C1 (stereo not given)"
  Class Name: "F"
- Compound: "O=c1[nH]c(=O)n([C@@H]2O[C@H](CO)[C@@H](O)[C@@H]2F)cc1I"
  Class Name: "F"

Prompt: Assay result, entry `C[N+](C)(C)Cc1c(CC#N)[nH]c2ccccc12` — outcome?
Completion: F

Prompt: Assay result, entry `COC(OC)(c1ccccc1)C(I)I` — outcome?
Completion: F

Prompt: Assay result, entry `COc1cc(-c2[o+]c3cc(O)cc(O)c3cc2O)cc(O)c1O` — outcome?
Completion: F

Prompt: Assay result, entry O=C1NC2(CCCCC2)C2CCCCC=C12 (stereo not given) — outcome?
Completion: F

Prompt: Assay result, entry CC(C)C(/N=C/c1ccccc1O)C(=O)O (stereo not given) — outcome?
Completion: F

Prompt: Assay result, entry `COc1cc(/C=C2\N=C(c3ccccc3)N(c3nc4c(OC)ccc(OC)c4s3)C2=O)cc(OC)c1OC` — outcome?
Completion: F
